# Tested on: Vibrio cholerae
# TEST_NAME: growth AUC normalised to DMSO control (fraction of control); higher = less growth inhibition, active = hit call of the paper
# CONDITION_DESCRIPTION: 20 µM
Examples of compounds with documented growth AUC normalised to DMSO control follow.
VALUE_TYPE: growth AUC normalised to DMSO control

> print(dat)
                                   compound           reading
1  CC(C)NNC(=O)c1ccncc1 [Iproniazide phosphate]  0.997 (inactive)
2    CCc1cccc(CC)c1NC(=O)CN(CC(=O)O)CC(=O)O  0.989 (inactive)
3  C[C@@H](O[C@H]1OCCN(Cc2n[nH]c(=O)[nH]2)[C@H]1c1ccc(F)cc1)c1cc(C(F)(F)F)cc(C(F)(F)F)c1 [Aprepitant]  0.985 (inactive)

Numbers sourced from the supplement of paper PMC12350171.
